- TEST_SYSTEM: p75^NTR receptors (PC12 cells) (Rattus norvegicus, UniProt P07174)
- Construct: endogenous in cells; host or cells: PC12 cells
- Sequence (P07174 30-425): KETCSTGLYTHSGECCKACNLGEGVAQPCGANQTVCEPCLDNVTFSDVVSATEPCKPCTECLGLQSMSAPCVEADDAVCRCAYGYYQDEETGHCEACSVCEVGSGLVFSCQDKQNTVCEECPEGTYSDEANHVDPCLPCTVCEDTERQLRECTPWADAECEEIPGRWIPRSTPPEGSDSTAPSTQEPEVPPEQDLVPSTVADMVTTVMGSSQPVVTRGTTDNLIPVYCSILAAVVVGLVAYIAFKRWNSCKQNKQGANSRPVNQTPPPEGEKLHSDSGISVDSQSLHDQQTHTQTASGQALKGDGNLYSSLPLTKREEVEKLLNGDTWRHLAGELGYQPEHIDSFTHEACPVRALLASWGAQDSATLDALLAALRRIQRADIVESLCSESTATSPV
- Sequence (P23560 129-247 partner): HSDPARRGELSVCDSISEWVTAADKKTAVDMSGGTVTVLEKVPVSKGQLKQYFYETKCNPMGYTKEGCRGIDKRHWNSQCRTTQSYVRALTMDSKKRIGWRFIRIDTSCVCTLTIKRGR
- METHOD_DESCRIPTION: Basic screening assay: binding of 125I-BDNF to PC12 cells
- EXPERIMENTAL_CONTEXT: Table 2; test compound 50 μM; 0.5 nM 125I-BDNF; PC12 cells; 2 h at 4° C.; specific binding as percent of control; read-out: BDNF Activity % Maximal Binding
As shown below, each of these compounds has a reported activity at 50 µM value.

Example results:
                                   compound                               test_system  endpoint_result
0  Cc1cccc(N2NC(=O)C(=Cc3ccc(-c4ccc(C(=O)O)cc4)o3)C2=O)c1 [Compound 82]  p75^NTR receptors (PC12 cells) (Rattus norvegicus, UniProt P07174)        20 to 30%
1  COC(=O)CN1C(=O)S/C(=C/c2ccc(-c3ccc(C(=O)O)c(Cl)c3)o2)C1=O [Compound 67]  p75^NTR receptors (PC12 cells) (Rattus norvegicus, UniProt P07174)         0 to 10%
2  CN1C(=O)S/C(=C/c2ccc(-c3ccc(C(=O)O)c(Cl)c3)o2)C1=O [Compound 80]  p75^NTR receptors (PC12 cells) (Rattus norvegicus, UniProt P07174)        10 to 20%
3  O=C(O)c1ccc(Cl)c(-c2ccc(/C=C3/NC(=O)N(Cc4ccccc4F)C3=O)o2)c1 [Compound 72]  p75^NTR receptors (PC12 cells) (Rattus norvegicus, UniProt P07174)         0 to 10%
4  COC(=O)CN1C(=O)S/C(=C/c2ccc(-c3ccc(C(=O)O)cc3)o2)C1=O [Compound 79]  p75^NTR receptors (PC12 cells) (Rattus norvegicus, UniProt P07174)        10 to 20%

We next turn to a different compound, shown below.
Query (compound): COC(=O)c1cccc(-c2ccc(/C=C3/SC(=S)N(CC(=O)O)C3=O)o2)c1 [Compound 69] ; field requested: activity at 50 µM 0 to 10%

###

- System: p75^NTR receptors (PC12 cells)
- METHOD_DESCRIPTION: Basic screening assay: binding of 125I-NGF to PC12 cells
- EXPERIMENTAL_CONTEXT: Table 1; test compound 50 μM; 0.5 nM 125I-NGF; PC12 cells; 2 h at 4° C.; specific binding as percent of control
ASSAY_ENDPOINT: NGF Activity % Maximal Binding

                         structure_notation  endpoint_result
0  COc1cc([N+](=O)[O-])ccc1-c1ccc(C=C2C(=O)ON=C2c2ccccc2)o1       * (50 < *)
1  Cc1ccc(C(=O)O)cc1-c1ccc(/C=C2/NC(=O)NC2=O)o1       * (50 < *)
2  Cc1cc([N+](=O)[O-])ccc1-c1ccc(C=C2SC(=S)NC2=O)o1       * (50 < *)

###

As shown below, each of these molecules has a reported activity at 50 µM value.
- TEST_SYSTEM: p75^NTR receptors (PC12 cells) (Rattus norvegicus, UniProt P07174)
- Construct: endogenous in cells; host or cells: PC12 cells
- METHOD_DESCRIPTION: Basic screening assay: binding of 125I-BDNF to PC12 cells
- EXPERIMENTAL_CONTEXT: Table 1; test compound 50 μM; 0.5 nM 125I-BDNF; PC12 cells; 2 h at 4° C.; specific binding as percent of control; read-out: BDNF Activity % Maximal Binding

>>> df
                                   molecule  endpoint_result
0  O=C(O)c1cc(-c2ccc(/C=C3\NC(=O)N(Cc4ccc(F)cc4)C3=O)o2)ccc1Cl        10 to 20%
1  O=C1C(=Cc2ccc(-c3ccc([N+](=O)[O-])cc3)o2)SC(=S)N1Cc1cccnc1        40 to 50%
2  CCCC(C(=O)O)N1C(=O)C(=Cc2ccc(-c3ccc([N+](=O)[O-])cc3)o2)SC1=S (centres unmarked)        30 to 40%
3  O=C(O)CN1C(=O)C(=Cc2ccc(-c3ccc([N+](=O)[O-])cc3)o2)SC1=S        20 to 30%
4  Cc1cc(C(=O)O)ccc1-c1ccc(/C=C2/NC(=O)NC2=O)o1        20 to 30%
5  CCOC(=O)CN1C(=O)S/C(=C/c2ccc(-c3ccc(C(=O)O)c(Cl)c3)o2)C1=O         0 to 10%

Query (molecule): O=C(O)c1ccc(Cl)c(-c2ccc(/C=C3/NC(=O)N(Cc4ccc(F)cc4)C3=O)o2)c1 ; field requested: activity at 50 µM 0 to 10%

Same question, COC(=O)C(C)N1C(=O)S/C(=C/c2ccc(-c3ccc(C)c([N+](=O)[O-])c3)o2)C1=O (centres unmarked) this time 40 to 50%
